src = patent US20260049134A1

System name: T1, GARS-His (Sino Biological) (human, UniProt P41250 37-739, limits assumed)
T1 construct: Bought; also called GARS1; glycyl-tRNA synthetase; not shown: His tag of the bought protein
T1 sequence: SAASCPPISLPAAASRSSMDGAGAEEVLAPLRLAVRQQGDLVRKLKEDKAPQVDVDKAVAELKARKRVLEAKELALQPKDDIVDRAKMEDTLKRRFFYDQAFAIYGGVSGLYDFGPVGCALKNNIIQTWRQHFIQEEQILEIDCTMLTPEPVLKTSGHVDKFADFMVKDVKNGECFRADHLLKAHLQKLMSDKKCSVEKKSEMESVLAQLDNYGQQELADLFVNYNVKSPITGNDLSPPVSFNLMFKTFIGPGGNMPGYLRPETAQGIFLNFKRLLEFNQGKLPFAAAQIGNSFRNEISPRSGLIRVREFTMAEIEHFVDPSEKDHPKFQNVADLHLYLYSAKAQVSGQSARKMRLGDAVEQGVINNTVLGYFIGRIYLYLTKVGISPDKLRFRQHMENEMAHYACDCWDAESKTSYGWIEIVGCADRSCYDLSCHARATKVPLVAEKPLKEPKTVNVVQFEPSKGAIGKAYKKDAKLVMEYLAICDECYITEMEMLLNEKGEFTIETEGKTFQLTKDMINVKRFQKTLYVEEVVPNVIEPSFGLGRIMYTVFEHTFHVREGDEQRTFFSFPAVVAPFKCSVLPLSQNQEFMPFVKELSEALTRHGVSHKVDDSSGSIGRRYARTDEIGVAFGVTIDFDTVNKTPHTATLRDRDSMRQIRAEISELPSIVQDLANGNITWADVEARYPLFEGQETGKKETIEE
Test name: ELISA on coated GARS-His, 150 ng IgG1; None 0.099
Param label: returns class 1 when ELISA Absorbance (405 nm-570 nm) < 0.1, returns class 0 otherwise, including exact equality.

Solved cases (3 shown):
- Binder: "HW-97 chimeric rabbit-human IgG1 LA/LA/PG (antibody, V domains shown, Fc-silenced (L234A/L235A/P329G) IgG1, lambda; Alexa Fluor 647-labeled in single-step flow cytometry; Prototype of cluster C-97) VH: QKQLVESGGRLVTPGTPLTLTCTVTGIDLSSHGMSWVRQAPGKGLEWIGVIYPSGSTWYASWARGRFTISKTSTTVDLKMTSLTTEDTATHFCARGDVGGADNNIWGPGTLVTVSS VL: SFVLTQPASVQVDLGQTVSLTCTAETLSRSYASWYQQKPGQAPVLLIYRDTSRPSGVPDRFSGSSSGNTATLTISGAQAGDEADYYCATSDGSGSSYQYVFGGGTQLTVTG"
  Label class: "class 1"
- Binder: "HW-45 chimeric rabbit-human IgG1 LA/LA/PG (antibody, V domains shown, Fc-silenced (L234A/L235A/P329G) IgG1, lambda; Alexa Fluor 647-labeled in single-step flow cytometry; Prototype of cluster C-45) VH: QKQLVESGGRLVTPGTPLTLTCTVSGFSLSSYAMGWFRQAPGKGLEWIGIINSYGSTYYASWAKGRFTISKTSTTVDLKITSPTTEDTATYFCGRRIGSARFDPWGPGTLVTVSS VL: SFVLTQPASVQVNLGQTVSLTCTADTLSRSYASWYQQKPGQAPVLLIYRDTRRPSGVPDRFSGSSSGNTATLTISGAQAGDEADYYCATSDGSGSSYRLVFGGGTQLTVTG"
  Label class: "class 0"
- Binder: "HW-56 chimeric rabbit-human IgG1 LA/LA/PG (antibody, V domains shown, Fc-silenced (L234A/L235A/P329G) IgG1, kappa; Alexa Fluor 647-labeled in single-step flow cytometry; Cluster C-45) VH: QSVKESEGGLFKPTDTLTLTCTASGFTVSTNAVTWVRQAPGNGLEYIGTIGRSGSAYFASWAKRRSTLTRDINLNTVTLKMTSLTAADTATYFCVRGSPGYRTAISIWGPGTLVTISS VL: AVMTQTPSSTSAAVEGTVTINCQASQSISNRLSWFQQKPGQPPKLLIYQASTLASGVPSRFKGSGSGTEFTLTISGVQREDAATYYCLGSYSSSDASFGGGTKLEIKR"
  Label class: "class 0"

Task: Is ELISA Absorbance (405 nm-570 nm) of HW-113 chimeric rabbit-human IgG1 LA/LA/PG (antibody, V domains shown, Fc-silenced (L234A/L235A/P329G) IgG1, lambda; Alexa Fluor 647-labeled in single-step flow cytometry) VH: QKQLVESGGGLVQPGGSLTLTCTVSGFSLNKYYMGWFRQAPGKGLEWIGVISRSGDTYYSSWAKGRFTISKASTTVDLRITSPTTEDTATYFCARDASSPGFHGDRLDLWGQGTLVTVSS VL: SFVLTQPASVQVNLGQTVSLTCTADTLSRSYASWYQQKPGQAPVLLIYRDTSRPSGVPDRFSGSSSGNTATLTISGAQAGDEADYYCATSDGIGSNYLWVFGGGTQLTVTG strictly below 0.1?
Result: class 1
